Assignment: determine reported % Activation for the given molecules.
TEST_TARGET: ΔF508-CFTR (Homo sapiens, UniProt P13569, DEL508-508)
Construct: host or cells: CFBE41o-, doxycycline-inducible
Sequence (P13569 with tags, fused parts or gaps DEL508-508): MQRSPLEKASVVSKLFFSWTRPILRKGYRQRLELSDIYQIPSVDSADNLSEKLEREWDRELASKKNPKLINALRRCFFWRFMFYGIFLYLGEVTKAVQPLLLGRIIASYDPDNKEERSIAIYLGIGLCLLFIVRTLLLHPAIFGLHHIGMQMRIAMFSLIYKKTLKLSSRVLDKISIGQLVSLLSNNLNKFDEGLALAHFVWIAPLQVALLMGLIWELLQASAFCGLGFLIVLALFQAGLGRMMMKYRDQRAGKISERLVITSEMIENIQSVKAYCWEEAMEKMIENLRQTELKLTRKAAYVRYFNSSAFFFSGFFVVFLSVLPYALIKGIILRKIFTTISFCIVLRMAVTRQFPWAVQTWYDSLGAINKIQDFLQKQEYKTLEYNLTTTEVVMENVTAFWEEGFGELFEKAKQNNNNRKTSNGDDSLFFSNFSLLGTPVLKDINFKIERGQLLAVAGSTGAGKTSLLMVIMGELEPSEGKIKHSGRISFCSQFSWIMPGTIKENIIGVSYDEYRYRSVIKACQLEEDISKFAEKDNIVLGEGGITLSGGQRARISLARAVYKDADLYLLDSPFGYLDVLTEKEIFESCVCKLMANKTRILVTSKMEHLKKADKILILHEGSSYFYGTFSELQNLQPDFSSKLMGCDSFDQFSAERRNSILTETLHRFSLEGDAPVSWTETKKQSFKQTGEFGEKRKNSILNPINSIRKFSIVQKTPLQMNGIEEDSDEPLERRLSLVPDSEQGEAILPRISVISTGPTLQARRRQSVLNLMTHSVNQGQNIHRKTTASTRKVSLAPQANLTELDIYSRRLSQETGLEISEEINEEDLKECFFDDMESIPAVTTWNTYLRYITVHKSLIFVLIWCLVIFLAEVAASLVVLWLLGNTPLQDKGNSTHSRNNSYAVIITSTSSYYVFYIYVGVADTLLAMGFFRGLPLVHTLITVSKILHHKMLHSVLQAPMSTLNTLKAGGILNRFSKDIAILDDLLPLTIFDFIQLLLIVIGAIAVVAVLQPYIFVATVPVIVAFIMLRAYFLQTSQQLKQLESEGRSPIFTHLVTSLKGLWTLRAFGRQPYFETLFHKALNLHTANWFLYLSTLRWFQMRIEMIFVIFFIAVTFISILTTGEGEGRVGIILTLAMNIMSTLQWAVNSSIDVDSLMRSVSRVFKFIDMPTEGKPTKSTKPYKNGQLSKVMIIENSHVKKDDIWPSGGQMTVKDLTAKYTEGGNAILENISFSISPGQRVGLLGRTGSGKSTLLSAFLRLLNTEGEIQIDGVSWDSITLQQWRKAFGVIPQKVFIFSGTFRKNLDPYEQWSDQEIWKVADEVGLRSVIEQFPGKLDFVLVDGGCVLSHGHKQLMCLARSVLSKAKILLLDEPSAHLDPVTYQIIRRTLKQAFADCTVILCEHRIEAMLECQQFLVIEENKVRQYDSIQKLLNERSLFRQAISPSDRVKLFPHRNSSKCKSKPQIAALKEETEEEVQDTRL
EXPERIMENT_NOTES: CFTR cell surface levels using HRP-tagged ΔF508-CFTR expressing CFBE cells, intrinsic corrector capacity
Assay type: cell-based
Parameters: concentration or dose not given beside the values
RUN_CONDITIONS: HRP-tagged ΔF508-CFTR expressing CFBE41o- cells; compound alone (intrinsic corrector capacity); 20 hours at 33° C.
From the text: Measuring CFTR Cell Surface Levels Using HRP-Tagged ΔF508-CFTR Expressing CFBE Cells The HRP-tagged ΔF508-CFTR cell assay measures the expression of CFTR-ΔF508 at the plasma membrane. […] When HRP-tagged ΔF508-CFTR is present at the plasma membrane, the HRP enzyme activity can be measured. The amount of CFTR-ΔF508 that can be rescued to the plasma membrane is correlated with the amount of functional enzyme that can be measured. […]
Mention the unit after the number when you answer.

GET % Activation where system = ΔF508-CFTR (Homo sapiens, UniProt P13569, DEL508-508) and item = Cc1nn(-c2cccc(F)c2)c2nc(C(=O)NS(C)(=O)=O)cc(-c3ccc(N4CCOCC4)cc3)c12
181.96%

GET % Activation where system = ΔF508-CFTR (Homo sapiens, UniProt P13569, DEL508-508) and item = CCS(=O)(=O)NC(=O)c1cc(-c2ccc(N3CCOCC3)cc2)c2c(C)nn(-c3cccc(OC)c3)c2n1
254.1%

GET % Activation where system = ΔF508-CFTR (Homo sapiens, UniProt P13569, DEL508-508) and item = CC(C)OC1CCN(c2cc(C(=O)NS(C)(=O)=O)nc3c2c(C2CCC2)nn3-c2ccccc2)CC1
228.95%

GET % Activation where system = ΔF508-CFTR (Homo sapiens, UniProt P13569, DEL508-508) and item = COC(=O)N1CCC(COc2cc(C(=O)NS(C)(=O)=O)nc3c2c(C2CCC2)nn3-c2ccccc2)CC1
193.9%

GET % Activation where system = ΔF508-CFTR (Homo sapiens, UniProt P13569, DEL508-508) and item = CN(C)S(=O)(=O)NC(=O)c1cc(-c2ccc(CN3CCOCC3)cc2)c2c(OC3CCC3)nn(C3CCCCC3)c2n1
114.2%

GET % Activation where system = ΔF508-CFTR (Homo sapiens, UniProt P13569, DEL508-508) and item = COCCN(C)c1ccc(-c2cc(C(=O)NS(C)(=O)=O)nc3c2c(C(C)C)nn3-c2cccc(N3CCOCC3)c2)cn1
329.92%

GET % Activation where system = ΔF508-CFTR (Homo sapiens, UniProt P13569, DEL508-508) and item = CS(=O)(=O)NC(=O)c1cc(N2CCC(N3CCCC(C(F)(F)F)C3)CC2)c2c(C3CCC3)nn(-c3ccc(F)cc3)c2n1 (stereo not shown)
331.67%

----------
TEST_TARGET: ΔF508-CFTR (Homo sapiens, UniProt P13569, DEL508-508)
Construct: host or cells: CFBE41o-, doxycycline-inducible
EXPERIMENT_NOTES: CFTR cell surface levels using HRP-tagged ΔF508-CFTR expressing CFBE cells, in the presence of a co-corrector
Assay type: cell-based
RUN_CONDITIONS: HRP-tagged ΔF508-CFTR CFBE cells, in the presence of 3 μM co-corrector; read-out: EC50
Assignment: determine reported pEC50 for the given compounds.
# reply with the number alone; pEC50 is -log10 of concentration in mol/L

Supply recorded pEC50 for CC1(S(=O)(=O)NC(=O)c2cc(N3CCC(N4CCN(C5CC5)CC4)CC3)c3c(C4CCC4)nn(-c4ccccc4)c3n2)CC1 here.
6.93

Supply recorded pEC50 for CS(=O)(=O)NC(=O)c1cc(C2CCN(C3CCC(F)(F)CC3)CC2)c2c(C3CCC3)nn(-c3ccc(F)cc3)c2n1 here.
6.71

Supply recorded pEC50 for CCS(=O)(=O)NC(=O)c1cc(N2CCC(CN3CCCC3)CC2)c2c(C3CCC3)nn(-c3ccccc3)c2n1 here.
6.71

Supply recorded pEC50 for Cc1nn(C2CCCCC2)c2nc(C(=O)NS(=O)(=O)C3CC3)cc(-c3ccc(N4CCOCC4)cc3)c12 here.
5.91

Supply recorded pEC50 for O=C(NS(=O)(=O)CCO)c1cc(N2CCC(CCN3CCOCC3)CC2)c2c(C3CCC3)nn(-c3ccc(F)cc3)c2n1 here.
6.31

Supply recorded pEC50 for COC1(CN2CCS(=O)(=O)CC2)CCN(c2cc(C(=O)NS(C)(=O)=O)nc3c2c(C2CCC2)nn3-c2ccccc2)CC1 here.
5.48

----------
TEST_TARGET: ΔF508-CFTR (Homo sapiens, UniProt P13569, DEL508-508)
Construct: host or cells: CFBE41o-, doxycycline-inducible
EXPERIMENT_NOTES: CFTR cell surface levels using HRP-tagged ΔF508-CFTR expressing CFBE cells, in the presence of a co-corrector
Format: cell-based
RUN_CONDITIONS: HRP-tagged ΔF508-CFTR CFBE cells, in the presence of 3 μM co-corrector
Assignment: determine reported % Activation for the given molecules.
Record the value in %, omitting the unit from your answer.

GET % Activation where system = ΔF508-CFTR (Homo sapiens, UniProt P13569, DEL508-508) and item = CC(C)Oc1nn(C2CCCCC2)c2nc(C(=O)NS(C)(=O)=O)cc(-c3ccc(CN4CCN(C(C)C)CC4)cc3)c12 [Compound 634]
439.44

GET % Activation where system = ΔF508-CFTR (Homo sapiens, UniProt P13569, DEL508-508) and item = CC(C)c1nn(-c2ccc(F)cc2)c2nc(C(=O)NS(C)(=O)=O)cc(N3CCC(N4CCCCC4)CC3)c12 [Compound 348]
468.65

GET % Activation where system = ΔF508-CFTR (Homo sapiens, UniProt P13569, DEL508-508) and item = CS(=O)(=O)NC(=O)c1cc(N2CCC(N3CCCCC3)CC2)c2c(C3CCC3)nn(-c3ccc(F)cc3)c2n1 [Compound 450]
443.25

GET % Activation where system = ΔF508-CFTR (Homo sapiens, UniProt P13569, DEL508-508) and item = CS(=O)(=O)NC(=O)c1cc(OCC2CCOCC2)c2c(C3CCC3)nn(-c3ccccc3)c2n1 [Compound 200]
318.27

GET % Activation where system = ΔF508-CFTR (Homo sapiens, UniProt P13569, DEL508-508) and item = CC1(COc2cc(C(=O)NS(C)(=O)=O)nc3c2c(C2CCC2)nn3-c2ccccc2)COC1 [Compound 254]
312.1

GET % Activation where system = ΔF508-CFTR (Homo sapiens, UniProt P13569, DEL508-508) and item = CS(=O)(=O)NC(=O)c1cc(N2CCC(CO)CC2)c2c(C3CCC3)nn(-c3ccccc3)c2n1 [Compound 244]
290.6

GET % Activation where system = ΔF508-CFTR (Homo sapiens, UniProt P13569, DEL508-508) and item = COCC1(F)CCN(c2cc(C(=O)NS(C)(=O)=O)nc3c2c(C2CCC2)nn3-c2ccccc2)CC1 [Compound 504]
404.8

----------
Assignment: determine reported EC50 for the given molecules.
TEST_TARGET: ΔF508-CFTR (Homo sapiens, UniProt P13569, DEL508-508)
Construct: host or cells: CFBE41o-, doxycycline-inducible
EXPERIMENT_NOTES: CFTR cell surface levels using HRP-tagged ΔF508-CFTR expressing CFBE cells, in the presence of a co-corrector
Type: cell-based
RUN_CONDITIONS: HRP-tagged ΔF508-CFTR CFBE cells, in the presence of 3 μM co-corrector; read-out: EC50
Record the value in nM, omitting the unit from your answer.

Supply recorded EC50 for CC(C)Oc1nn(C2CCCCC2)c2nc(C(=O)NS(=O)(=O)N(C)C)cc(-c3ccc(CN4CCCCC4)cc3)c12 here.
184

Supply recorded EC50 for COCC1CCN(c2cc(C(=O)NS(C)(=O)=O)nc3c2c(C(C)C)nn3CC(C)C)CC1 here.
3330

Supply recorded EC50 for CC(C)N1CCN(C2CCN(c3cc(C(=O)NS(=O)(=O)N(C)C)nc4c3c(C3CCC3)nn4C3CCCCC3)CC2)CC1 here.
233

Supply recorded EC50 for COCC1CCN(Cc2cc(C(=O)NS(=O)(=O)N(C)C)nc3c2c(C2CCC2)nn3-c2ccc(F)cc2)CC1 here.
712

Supply recorded EC50 for CC(C)c1nn(-c2cccc(N3CCOCC3)c2)c2nc(C(=O)NS(C)(=O)=O)cc(-c3ccc(N(C)C4CCOCC4)cc3)c12 here.
277

Supply recorded EC50 for CN(C)S(=O)(=O)NC(=O)c1cc(N2CCC(N3CCCC(F)C3)CC2)c2c(C3CCC3)nn(-c3ccc(F)cc3)c2n1 (stereo not shown) here.
111

Supply recorded EC50 for CC(C)(C)S(=O)(=O)NC(=O)c1cc(OCC2CCOCC2)c2c(C3CCC3)nn(-c3ccccc3)c2n1 here.
414
